target: Jak2 (UniProt O60674); test: phosphorylation enrichment, bacterial display (enrichment ratio); higher = better substrate or ligand; peptides without Tyr show the background
Sequence (O60674 whole entry, looked up): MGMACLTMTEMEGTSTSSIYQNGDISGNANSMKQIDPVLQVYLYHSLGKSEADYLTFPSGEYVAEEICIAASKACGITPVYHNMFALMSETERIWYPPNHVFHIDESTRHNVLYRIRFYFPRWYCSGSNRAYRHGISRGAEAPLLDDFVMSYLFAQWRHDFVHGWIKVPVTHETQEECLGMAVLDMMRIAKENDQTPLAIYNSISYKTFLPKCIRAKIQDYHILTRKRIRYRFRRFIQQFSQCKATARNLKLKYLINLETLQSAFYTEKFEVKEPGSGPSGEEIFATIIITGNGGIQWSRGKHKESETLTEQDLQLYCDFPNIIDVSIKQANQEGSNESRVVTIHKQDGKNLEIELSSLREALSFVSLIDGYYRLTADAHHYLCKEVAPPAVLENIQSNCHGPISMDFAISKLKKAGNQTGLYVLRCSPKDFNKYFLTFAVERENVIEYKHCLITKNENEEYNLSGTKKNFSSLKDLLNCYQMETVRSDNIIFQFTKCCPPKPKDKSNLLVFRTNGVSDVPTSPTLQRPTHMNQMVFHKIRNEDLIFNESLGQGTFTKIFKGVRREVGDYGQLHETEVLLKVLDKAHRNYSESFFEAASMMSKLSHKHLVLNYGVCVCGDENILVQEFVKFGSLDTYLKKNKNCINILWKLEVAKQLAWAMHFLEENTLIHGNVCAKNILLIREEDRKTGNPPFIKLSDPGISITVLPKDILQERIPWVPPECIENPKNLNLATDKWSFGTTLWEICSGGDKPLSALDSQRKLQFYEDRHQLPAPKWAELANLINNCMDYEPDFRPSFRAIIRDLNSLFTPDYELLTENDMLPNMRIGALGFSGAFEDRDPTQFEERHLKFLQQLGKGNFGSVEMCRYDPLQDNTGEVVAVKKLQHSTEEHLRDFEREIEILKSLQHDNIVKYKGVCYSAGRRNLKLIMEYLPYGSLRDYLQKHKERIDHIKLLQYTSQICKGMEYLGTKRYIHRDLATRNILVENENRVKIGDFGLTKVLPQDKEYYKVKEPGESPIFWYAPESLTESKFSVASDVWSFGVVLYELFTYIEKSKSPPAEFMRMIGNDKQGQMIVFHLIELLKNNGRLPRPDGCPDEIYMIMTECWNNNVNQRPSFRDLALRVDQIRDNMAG
Metric: phosphorylation enrichment
Give bare numbers.

Would you please look over these solved cases?
>>> readout_number("GLIPAYHWVIM [NMNAT1_Y64_R66W]")
1.68
>>> readout_number("LIHLHYIRRDY [BBS4_Y43_K46R]")
0.562
>>> readout_number("SHLSAYPALEG [CD5_Y465]")
0.483
>>> readout_number("KNRDVSSSDFF [USP24_Y2134_Y2134S_YF]")
0.641
>>> readout_number("TVFENYVADIE [RHOA_Y42]")
1.46
>>> readout_number("RMLRKYQELMS [KRT74_Y425_E424K]")
0.5
>>> readout_number("FHRQLYHKCTH [F12_Y58_YF]")
0.623
>>> readout_number("KGSLPYNLILD [PKD1L2_Y406]")
0.687
>>> readout_number("AEYGLYGAMVW [VSX2_Y222_R227W]")
1.25
>>> readout_number("GHMFAYDWISI [BEST1_Y227_L224M_YF]")
0.842

Please look at the items below and tell me phosphorylation enrichment for each one, in order.
1. IRTIDYRYTVS [IDS_Y497_W502S]
2. LLREWYLPDPY [SIX3_Y225_Q227P]

OUTPUT:
1: 0.713; 2: 1.04

Okay, here is my list. What is phosphorylation enrichment for each of these?
1. AKLDIYKRKVE [VWA3B_Y918_N916D]
2. RVGNMYVRGLS [ABCG8_Y209]
3. GGFNNYGFGSD [HNRNPH3_Y159_N163S_YF]
4. DEEPPYRGPFC [SASH1_Y551]
5. VEDQYYCVDCY [FHL1_Y208]
6. HRGSLYLAIEF [TEK_Y899_Y897S_YF]
7. ESDFPYSSSFE [SRPK2_Y427_T426P_YF]
8. TSKLNYLDPRI [TOP1_Y723]

OUTPUT:
0.475
0.709
0.68
0.697
1.86
1.28
0.942
0.506

INPUT: I would be grateful if you could share the reported phosphorylation enrichment for CKLFQYFLDHL [ATRX_Y1849_YF] .
OUTPUT: 1.3

###

Kindly supply the reported SH2 binding enrichment values for the records listed here.
molecular target: SHP2-C SH2; test: SH2 binding enrichment of the phosphorylated peptide, bacterial display (enrichment ratio); higher = better substrate or ligand; peptides without Tyr show the background
Numbers only.

Worked cases, answers included:
>>> readout_number("TKGMIYGGGGG [PSME1_Y249]")
0.812
>>> readout_number("FRNSLYAPDFS [FAM92A_Y226_YF]")
0.736

Now turn to the next sequence.
INPUT: Please tell me: SH2 binding enrichment of EIIPFYGMSSY [FNDC3B_Y175_T179S] , system SHP2-C SH2?;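 also: peptide library displayed on the E. coli surface as eCPX fusions, selected cells deep-sequenced, score is each peptide's frequency after selection divided by its frequency in the input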
OUTPUT: 0.828

###

biological target: Fyn (UniProt P06241); experiment: phosphorylation enrichment, bacterial display (enrichment ratio); higher = better substrate or ligand; peptides without Tyr show the background
Sequence (P06241 whole entry, looked up): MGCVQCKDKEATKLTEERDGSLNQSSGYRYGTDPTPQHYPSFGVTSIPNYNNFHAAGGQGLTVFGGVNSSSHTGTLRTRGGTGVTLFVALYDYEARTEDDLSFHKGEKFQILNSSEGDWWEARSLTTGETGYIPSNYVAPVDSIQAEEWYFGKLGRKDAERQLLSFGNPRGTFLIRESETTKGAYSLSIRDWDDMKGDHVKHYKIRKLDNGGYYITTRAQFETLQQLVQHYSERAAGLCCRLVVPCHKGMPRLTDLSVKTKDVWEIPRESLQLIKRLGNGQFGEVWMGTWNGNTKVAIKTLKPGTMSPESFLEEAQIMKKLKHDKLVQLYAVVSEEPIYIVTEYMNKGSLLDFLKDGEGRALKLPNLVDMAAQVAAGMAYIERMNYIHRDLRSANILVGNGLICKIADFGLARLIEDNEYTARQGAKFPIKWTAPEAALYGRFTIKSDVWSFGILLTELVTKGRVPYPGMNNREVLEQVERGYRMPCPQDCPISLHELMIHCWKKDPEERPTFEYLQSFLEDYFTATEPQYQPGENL
Metric: phosphorylation enrichment
One number for each entry.

// worked examples, phosphorylation enrichment included
>>> readout_number("QSKGIYYVQLE [MGAT4B_Y262]")
2.5
>>> readout_number("IGNGYYFRVFS [MYBPC3_Y1136]")
0.496
>>> readout_number("DKATEYIQFVR [MAX_Y70_M74V_YF]")
0.442
>>> readout_number("DHCNQYEQQKM [CHD7_Y75_Y72C]")
0.534
>>> readout_number("HDKEFYSVHNK [MET_Y1235_Y1230H_YF]")
0.646
>>> readout_number("DGQVNYEELVQ [CALM1_Y139_F142L]")
0.704

Hey, quick one: what's phosphorylation enrichment for each of these?
1. DEDEEYEYMNR [ERBB3_Y1197]
2. TEAEPYFCSLR [NPHS1_Y1138_R1140C_YF]
3. FPSLPYSPVSS [CAMKK2_Y128_C123Y_YF]
4. QNTGNYYDLYG [PTPN11_Y62_D61N]

OUTPUT:
1. 0.523
2. 0.544
3. 0.479
4. 9.62

Can you give me phosphorylation enrichment for all of these, one by one?
1. RNDLDYMDSRR [GAA_Y407_W402R]
2. SHMVDYQPFRK [TEX37_Y25_YF]

OUTPUT:
1: 0.455; 2: 0.5

INPUT: Look at this sequence and give its reported phosphorylation enrichment. NKEAIYSGYIR [SMCHD1_Y283]
OUTPUT: 11.3

###

test system: c-Abl (mouse); assay: phosphorylation enrichment, bacterial display (enrichment ratio); higher = better substrate or ligand; peptides without Tyr show the background
Kindly state phosphorylation enrichment for each of the entries shown.
Answers are plain numbers.

State recorded phosphorylation enrichment for all listed sequences.
1. RESSGYLRLAF [MEP1A_Y481]
2. RDSQLYAVDFE [MRPS34_Y34_YF]
3. ASYGPYTRVQS [FOXL2_Y258]
4. QSHKVYVQHLL [POR_Y604]
5. SEPDLYYDPRG [PKP1_Y160_C161Y]
6. EACRSYSHVVL [CHST6_Y168]
7. LITTLYISFLG [KCNQ1_Y267_G269S]

OUTPUT:
1. 1.23
2. 0.876
3. 0.464
4. 0.806
5. 3.09
6. 0.881
7. 1.64

###

biological target: FGFR1 (UniProt P11362); experiment: phosphorylation enrichment, bacterial display (enrichment ratio); higher = better substrate or ligand; peptides without Tyr show the background
Sequence (P11362 whole entry, looked up): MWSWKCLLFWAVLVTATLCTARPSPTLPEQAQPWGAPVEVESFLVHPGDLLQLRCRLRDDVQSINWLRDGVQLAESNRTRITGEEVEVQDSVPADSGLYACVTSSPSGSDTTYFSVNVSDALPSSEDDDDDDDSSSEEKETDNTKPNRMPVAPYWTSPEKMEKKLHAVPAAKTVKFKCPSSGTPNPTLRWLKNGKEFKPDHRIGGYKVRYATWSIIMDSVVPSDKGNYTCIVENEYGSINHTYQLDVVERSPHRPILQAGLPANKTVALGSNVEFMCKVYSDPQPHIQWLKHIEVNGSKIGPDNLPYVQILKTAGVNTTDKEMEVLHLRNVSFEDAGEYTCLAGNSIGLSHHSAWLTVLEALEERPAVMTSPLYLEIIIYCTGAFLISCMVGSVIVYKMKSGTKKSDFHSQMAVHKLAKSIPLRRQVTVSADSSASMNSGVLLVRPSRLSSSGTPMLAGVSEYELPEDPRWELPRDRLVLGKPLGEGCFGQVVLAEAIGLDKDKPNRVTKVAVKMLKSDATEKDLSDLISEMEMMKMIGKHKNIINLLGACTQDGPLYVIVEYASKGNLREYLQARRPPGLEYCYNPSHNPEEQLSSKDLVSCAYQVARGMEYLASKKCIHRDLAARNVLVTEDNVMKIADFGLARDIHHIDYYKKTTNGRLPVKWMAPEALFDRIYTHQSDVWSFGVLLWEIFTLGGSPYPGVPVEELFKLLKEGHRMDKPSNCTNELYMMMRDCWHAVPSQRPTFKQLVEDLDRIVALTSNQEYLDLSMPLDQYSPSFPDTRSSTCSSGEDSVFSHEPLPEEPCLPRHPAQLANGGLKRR
Consider the following sequences; for each one, report its phosphorylation enrichment.
Numbers only.

Observe how each entry below is paired with its result.
>>> readout_number("KAIMTYVPSFF [ACTN4_Y260_S262P_YF]")
0.445
>>> readout_number("RRNEIYEIKVD [LGR5_Y387_H383R]")
0.923
>>> readout_number("EFISENCGEII [EZH2_Y641_Y641N]")
0.487

Quick batch: phosphorylation enrichment for everything below.
1. SILAVYSKDNY [PANK2_Y400]
2. RNDLDYMDSRR [GAA_Y407_W402R]
3. HFPFQCHRQLF [F12_Y53_Y53C_YF]

OUTPUT:
0.451
0.512
0.745

###

biological target: MERTK (UniProt Q12866); assay: phosphorylation enrichment, bacterial display (enrichment ratio); higher = better substrate or ligand; peptides without Tyr show the background
Sequence (Q12866 whole entry, looked up): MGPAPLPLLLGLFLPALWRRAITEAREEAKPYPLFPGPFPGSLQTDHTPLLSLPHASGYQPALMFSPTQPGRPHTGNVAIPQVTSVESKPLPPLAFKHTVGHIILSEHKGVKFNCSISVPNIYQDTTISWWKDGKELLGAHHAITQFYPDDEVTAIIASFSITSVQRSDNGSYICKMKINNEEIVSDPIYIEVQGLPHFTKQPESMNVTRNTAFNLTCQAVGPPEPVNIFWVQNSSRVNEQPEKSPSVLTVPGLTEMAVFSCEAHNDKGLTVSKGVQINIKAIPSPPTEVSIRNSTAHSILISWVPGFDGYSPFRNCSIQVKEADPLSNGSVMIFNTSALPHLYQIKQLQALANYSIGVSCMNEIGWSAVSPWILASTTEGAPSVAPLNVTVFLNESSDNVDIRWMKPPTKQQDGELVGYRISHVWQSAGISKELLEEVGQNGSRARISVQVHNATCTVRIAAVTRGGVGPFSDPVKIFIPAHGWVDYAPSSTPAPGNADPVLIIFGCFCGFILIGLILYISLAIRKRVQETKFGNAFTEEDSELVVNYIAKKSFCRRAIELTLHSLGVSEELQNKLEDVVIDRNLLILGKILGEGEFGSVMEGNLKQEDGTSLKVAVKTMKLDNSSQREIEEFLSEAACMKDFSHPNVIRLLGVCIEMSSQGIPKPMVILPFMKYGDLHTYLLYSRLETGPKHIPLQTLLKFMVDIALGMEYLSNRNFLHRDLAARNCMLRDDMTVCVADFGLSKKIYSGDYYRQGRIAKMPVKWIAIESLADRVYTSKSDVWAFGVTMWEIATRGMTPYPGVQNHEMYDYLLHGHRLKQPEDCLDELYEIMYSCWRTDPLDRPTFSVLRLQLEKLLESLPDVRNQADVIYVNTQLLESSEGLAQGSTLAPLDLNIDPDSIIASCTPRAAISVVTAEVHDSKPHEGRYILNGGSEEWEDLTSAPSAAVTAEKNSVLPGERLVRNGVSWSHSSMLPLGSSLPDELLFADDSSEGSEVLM
Metric: phosphorylation enrichment
One number for each entry.

Below are worked cases with known answers.
>>> readout_number("MFNPMYALFRT [HUWE1_Y4078]")
6.9
>>> readout_number("EEGNPSFSSAR [MCCC2_Y520_Y520S_YF]")
0.459
>>> readout_number("PRPAGYPSMVS [CACNA1C_Y1832_T1835M]")
0.365
>>> readout_number("KDQGGYTMHQD [MAPT_Y29]")
0.413

I have 6 sequences here; please give me phosphorylation enrichment for each one.
1. RVGNMYVRGLS [ABCG8_Y209]
2. DISEPYKVYRI [IRF8_Y107]
3. PDNEPYIFKVF [PIK3AP1_Y553]
4. LDAFIYNAAVL [GRIN2A_Y730_D731N]
5. SDVWSYGVTMW [ZAP70_Y525]
6. LITTLYIGFLD [KCNQ1_Y267_G272D]

OUTPUT:
1. 0.395
2. 0.487
3. 0.725
4. 0.704
5. 0.502
6. 0.929

###

Would you mind telling me the reported phosphorylation enrichment of each entry?
tested on: AncSZ; test: phosphorylation enrichment, bacterial display (enrichment ratio); higher = better substrate or ligand; peptides without Tyr show the background
One number for each entry.

Example entries and their recorded answers appear below.
>>> readout_number("IRGNMYYENSY [EGFR_Y112]")
0.761
>>> readout_number("AELVRYFMEHH [PTPN11_Y80_Q79R_YF]")
0.653

Field: next sequence
INPUT: // query phosphorylation enrichment value for entry RVLQLYGCSPS [ASTL_Y279_K277Q]
OUTPUT: 1.69

###

test system: c-Src; assay: phosphorylation enrichment, bacterial display (enrichment ratio); higher = better substrate or ligand; peptides without Tyr show the background
Metric: phosphorylation enrichment
Numbers only.

>>> readout_number("GGFNNYGFGSD [HNRNPH3_Y159_N163S_YF]")
0.426

State the recorded phosphorylation enrichment for every item in the following list.
1. GIVKAYFVHAR [AIPL1_Y267_R270H_YF]
2. TDLAFYLVCKG [ASL_Y376_R379C_YF]
3. GREYIYVDPMQ [PDGFRA_Y574_H570R]
4. EKLQKYFRQNP [EHHADH_Y682_YF]
5. SGIFQYNIAKF [FOXL2_Y83_I84N_YF]
6. YSDPSYVKQME [CDC5L_Y464]
7. FSKDIYKRVTG [PANK2_Y405_N404I_YF]
8. LPPGEYVVVPS [CAPN1_Y494]

OUTPUT:
0.428
0.48
1.86
0.408
0.432
0.473
0.398
0.641

Hello, the source for this data is the supplement of paper PMC10065799, in case you need it.
